EXPERIMENTAL_TARGET: Fibroblast growth factor receptor (Homo sapiens, UniProt P22607+P11362+P22455+P21802)
TEST_DESCRIPTION: Inhibition of FGF-stimulated human umbilical vein endothelial cell proliferation
Type: functional, cell-based
Criterion: IC50 strictly under 20 nM. Met: criterion met. Not met: criterion not met.

Input: In the record for CONC(=O)c1cc(Nc2ncnn3cc(-c4nnc(CC5CC5)o4)c(C(C)C)c23)c(F)cc1F , is IC50 less than 20 nM?
Output: criterion met

Input: In the record for CONC(=O)c1cc(Nc2ncnn3cc(-c4nnc(CS(C)(=O)=O)o4)c(C(C)C)c23)c(F)cc1F , is IC50 less than 20 nM?
Output: criterion met

Input: In the record for CONC(=O)c1cc(Nc2ncnn3cc(-c4nnc(C(F)F)o4)c(C(C)C)c23)c(F)cc1F , is IC50 less than 20 nM?
Output: criterion not met

Input: In the record for CONC(=O)c1cc(Nc2ncnn3cc(-c4nnc(C)o4)c(C(C)C)c23)c(F)cc1F , is IC50 less than 20 nM?
Output: criterion met

Input: In the record for CONC(=O)c1cc(Nc2ncnn3cc(-c4nnc(C(F)(F)S(C)(=O)=O)o4)c(C(C)C)c23)c(F)cc1F , is IC50 less than 20 nM?
Output: criterion not met

Input: In the record for CONC(=O)c1cc(Nc2ncnn3cc(-c4nnc(CC(F)(F)F)o4)c(C(C)C)c23)c(F)cc1F , is IC50 less than 20 nM?
Output: criterion not met

Input: In the record for CONC(=O)c1cc(Nc2ncnn3cc(-c4nnc(CC(C)C)o4)c(C(C)C)c23)c(F)cc1F , is IC50 less than 20 nM?
Output: criterion met

Input: In the record for CONC(=O)c1cc(Nc2ncnn3cc(-c4nnc(C(C)C)o4)c(C(C)C)c23)c(F)cc1F , is IC50 less than 20 nM?
Output: criterion met

Data provenance: ChEMBL document CHEMBL1144449
